target: GKRP (Glucokinase Regulatory Protein) with human His-hepatic GK (Homo sapiens); assay: biochemical; details: 13C-glucose-6-phosphate formation; 280 nM GKRP (10×), 30 nM GK (5×); read-out: GK-GKRP EC50 (LC MS/MS-2)
pEC50: −log10 of the molar value.
Entries and their pEC50 values follow.
experimental_endpoint: pEC50

molecule	experimental_endpoint	measured
C[C@H]1CN(S(=O)(=O)c2ccc(N)s2)CCN1c1ccc(C(C)(O)C(F)(F)F)cc1 (mixture of isomers) [Example 139]	pEC50	6.43
COCC#Cc1cc(C(O)(C(F)(F)F)C(F)(F)F)ccc1N1CCN(S(=O)(=O)c2cccs2)CC1 [Example 153]	pEC50	6.17
CC(O)(c1ccc(N2CCN(S(=O)(=O)c3cccs3)C[C@@H]2CN2C3COCC2C(O)C3)cc1)C(F)(F)F (single isomer, unassigned) [Example 78 Peak #2]	pEC50	7.22
CC(O)(c1ccc(N2CCN(S(=O)(=O)c3cccs3)C[C@@H]2CN2C3COCC2C(O)C3)cc1)C(F)(F)F (single isomer, unassigned; peak #1) [Example 77 Peak #1]	pEC50	7.42
CC(O)(c1cnc(N2CCN(S(=O)(=O)c3ccc(N)nc3)C[C@@H]2CC2CCOCC2)nc1)C(F)(F)F (mixture of isomers) [Example 131]	pEC50	6.99
CC(O)(c1ccc(N2CCN(S(=O)(=O)c3ccc(N)s3)CC2)cc1)C(F)(F)F (racemic) [Example 90]	pEC50	6.08
CCC1COCCN1C[C@H]1CN(S(=O)(=O)c2cccs2)CCN1c1ccc(C(C)(O)C(F)(F)F)cc1 (mixture of isomers) [Example 143]	pEC50	7.44
C[C@H]1CN(S(=O)(=O)c2cccs2)CCN1c1ncc(C(O)(C(F)(F)F)C(F)(F)F)cn1 [Example 94]	pEC50	6.33
CC(O)(c1ccc(N2CCN(S(=O)(=O)c3cccs3)C[C@@H]2CN2CCS(=O)(=O)CC2C2CC2)cc1)C(F)(F)F (mixture of isomers) [Example 87]	pEC50	6.61
C[C@H]1C(=O)NCCN1C[C@H]1CN(S(=O)(=O)c2cccs2)CCN1c1ccc(C(C)(O)C(F)(F)F)cc1 (mixture of isomers) [Example 182]	pEC50	7.16
CC1CS(=O)(=O)CCN1C[C@H]1CN(S(=O)(=O)c2cccs2)CCN1c1ccc(C(C)(O)C(F)(F)F)cc1 (mixture of isomers) [Example 86]	pEC50	6.94
CC(O)(c1ccc(N2CCN(S(=O)(=O)c3cccs3)C[C@@H]2CN2C3COCC2C(O)C3)cc1)C(F)(F)F (single isomer, unassigned; peak #4) [Example 77 Peak #4]	pEC50	7.19

---

molecular target: interaction between glucokinase (GK) and glucokinase regulatory protein (GKRP) (Homo sapiens, UniProt Q14397); assay: biochemical; format: binding; details: read-out: GK-GKRP IC50 (Binding)
Sequence (Q14397 whole entry): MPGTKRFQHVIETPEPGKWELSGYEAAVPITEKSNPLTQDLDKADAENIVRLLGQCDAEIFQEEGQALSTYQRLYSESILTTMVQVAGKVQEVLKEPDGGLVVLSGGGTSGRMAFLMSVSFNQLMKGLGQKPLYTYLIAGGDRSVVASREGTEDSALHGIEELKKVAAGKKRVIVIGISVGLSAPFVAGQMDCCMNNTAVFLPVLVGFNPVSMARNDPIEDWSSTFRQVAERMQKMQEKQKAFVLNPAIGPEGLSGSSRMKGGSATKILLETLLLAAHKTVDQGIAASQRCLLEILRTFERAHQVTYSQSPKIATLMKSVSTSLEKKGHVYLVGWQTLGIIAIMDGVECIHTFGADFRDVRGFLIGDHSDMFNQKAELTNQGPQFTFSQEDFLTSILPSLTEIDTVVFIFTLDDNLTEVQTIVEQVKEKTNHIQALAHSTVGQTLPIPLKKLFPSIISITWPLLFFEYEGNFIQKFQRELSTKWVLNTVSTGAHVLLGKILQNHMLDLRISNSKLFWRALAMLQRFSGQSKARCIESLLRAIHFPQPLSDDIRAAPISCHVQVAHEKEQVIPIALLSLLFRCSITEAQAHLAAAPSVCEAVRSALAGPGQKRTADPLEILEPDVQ
# Lookup of reported IC50 keyed by entry

compound	unit_of_measurement	IC50
CC(O)(c1ccc(N2CCN(S(=O)(=O)c3cccs3)C[C@@H]2CN2CCOCC2CNS(C)(=O)=O)cc1)C(F)(F)F (single isomer, unassigned) [Example 112 Peak #1]	nM	275
CC(O)(c1ccc(N2CCN(S(=O)(=O)c3cccs3)C[C@@H]2CSc2ccccc2)cc1)C(F)(F)F (mixture of isomers)	nM	14
CC(O)(c1ccc(N2CCN(S(=O)(=O)c3cccs3)C[C@@H]2CN2CCOC[C@@H]2CO)cc1)C(F)(F)F (single isomer, unassigned) [Example 111 Peak #2]	nM	67
CC(O)(c1ccc(N2CCN(S(=O)(=O)c3cccs3)C[C@@H]2CN2CCOC[C@H]2CO)cc1)C(F)(F)F (single isomer, unassigned) [Example 110 Peak #2]	nM	79

The values you see were collected from patent US8431563B2.
